Reported Cruzain 10’ Inhibition values are given for each entry in this list.
Target: cruzain (Trypanosoma cruzi, UniProt P25779);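 note: at 5 µM compound concentration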
Sequence (P25779 123-337 limits assumed): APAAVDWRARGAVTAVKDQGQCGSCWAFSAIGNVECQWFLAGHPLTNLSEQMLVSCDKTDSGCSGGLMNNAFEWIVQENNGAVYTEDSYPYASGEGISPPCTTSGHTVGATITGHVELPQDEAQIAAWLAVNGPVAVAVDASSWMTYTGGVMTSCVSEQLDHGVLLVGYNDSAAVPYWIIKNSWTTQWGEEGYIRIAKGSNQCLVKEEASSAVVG
Experiment: biochemical
Settings: 10’ (pre-incubation time); sheet "Screening results"
endpoint label: Cruzain 10’ Inhibition (%)

{"compound": "NCC(=O)N1CCn2c(nc(-c3ccccc3)c2Nc2ccc3c(c2)OCO3)C1 [MMV011691]", "endpoint result": -3.4}
{"compound": "COc1ccc2nccc(NC(=O)C3CCN(CCc4ccc(Cl)cc4)CC3)c2n1 [MMV688844]", "endpoint result": -1.1}
{"compound": "c1ccc(Oc2ccc(-c3cc(CN4CCOCC4)[nH]n3)cc2)cc1 [MMV676161]", "endpoint result": 1.7}
{"compound": "Cc1cc(C)n(-c2ccc(NC(=O)C3CCN(Cc4cnc(C)s4)CC3)cc2)n1 [MMV007625]", "endpoint result": 1.6}
{"compound": "OC[C@H]1O[C@@H](n2c3ccc(Cl)cc3c3c(-c4cc5ccccc5o4)ncnc32)C(O)[C@H]1O (stereo partly drawn) [MMV688921]", "endpoint result": 11}
{"compound": "CC(C)(C)CN1C(=O)C(c2ccccc2)(c2ccccc2)N=C1N [MMV026550]", "endpoint result": 2.8}
{"compound": "Cc1cc(NCC(C)C)c2[nH]nc(-c3ccccc3)c2n1 [MMV021375]", "endpoint result": 23}
{"compound": "CC(C)=CCC/C(C)=C\\CNCCNC1C2CC3CC(C2)CC1C3 (stereo not drawn) [MMV687273]", "endpoint result": 2.8}
{"compound": "C[C@H](C(N)=O)N1CCCC[C@H]1c1ccc(OCc2cccc(F)c2)cc1 [MMV676269]", "endpoint result": 2}
{"compound": "O=C(c1ccc(NCCO)cc1)C1C[C@H]1c1ccc(Cl)cc1 (stereo partly drawn) [MMV676877]", "endpoint result": 5.5}
{"compound": "O=C(Nc1ccc(N2CCNCC2)nc1)c1oc(-c2ccccc2)nc1C(F)(F)F [MMV024937]", "endpoint result": 14}
{"compound": "c1ccc2c(c1)CN(CC1CC1)CC1(CCN(Cc3c[nH]c4cnccc34)CC1)O2 [MMV023183]", "endpoint result": 15}
{"compound": "COc1ccc(-c2cnc3cnc(-c4cccc(OC(C)C)c4)cn23)cc1 [MMV688270]", "endpoint result": 5}
{"compound": "CC(C)(C)OC(=O)N1CCC(Cn2nc(-c3cnc4ccccc4c3)c3c(N)ncnc32)CC1 [MMV688364]", "endpoint result": 0}
{"compound": "C[C@H](c1ccc2c(c1)CCCC2)N(C)c1ncc2c(N)nc(N)nc2n1 [MMV690103]", "endpoint result": 16}
{"compound": "COc1cccc(OC)c1C(=O)Nc1ccc(Cl)c(-c2nc3ccccc3s2)c1 [MMV676472]", "endpoint result": 14}
{"compound": "O=C(C1CCN(c2nnnn2-c2ccccc2)CC1)N1CCc2ccccc2C1 [MMV009135]", "endpoint result": 0.1}
{"compound": "Clc1ccc(Cl)c(CO[C@H]2CCCC[C@@H]2n2ccnc2)c1 [MMV676048]", "endpoint result": 5.7}
{"compound": "Cc1cc(Nc2ccc(C(F)(F)F)cc2)n2ccnc2n1 [MMV011229]", "endpoint result": 1.4}
{"compound": "CCc1cc(=O)n(C)c(SC(C)C(=O)Nc2ccc(F)cc2)n1 (stereo not drawn) [MMV688980]", "endpoint result": -0.6}
{"compound": "O=C(Nc1ccc(F)c(-c2nc3ncc(-c4ccccc4)cc3[nH]2)c1)N1CCCC1 [MMV688372]", "endpoint result": 4.3}
{"compound": "COc1ccc(C(=N)N)cc1-c1cn(-c2ccc(C(=N)N)cc2)nn1 [MMV675998]", "endpoint result": 26}
{"compound": "CCc1ccc([C@@H]2C[C@H](C(F)(F)F)n3ncc(C(=O)NCc4ccc(OC)cc4)c3N2)cc1 [MMV687180]", "endpoint result": -7}
{"compound": "CC(C)NCC(=O)Nc1cccc(C(=O)Nc2cccc(C(F)(F)F)c2)c1 [MMV020165]", "endpoint result": 12}
{"compound": "Nc1nc(N)c2c3c(sc2n1)CN(Cc1ccccc1)CC3 [MMV688345]", "endpoint result": 16}
{"compound": "Nc1ncnc2c1ncn2[C@@H]1O[C@H](COS(=O)(=O)NC(=O)c2ccccc2O)[C@@H](O)[C@H]1O [MMV687700]", "endpoint result": 10}
{"compound": "CC(c1cc(Cl)cc(Cl)c1)N(C)c1ncc2c(N)nc(N)nc2n1 (stereo not drawn) [MMV689437]", "endpoint result": 9}
{"compound": "Cc1[nH]c2cc(F)cc(F)c2c(=O)c1-c1ccc(Oc2ccc(OC(F)(F)F)cc2)cc1 [MMV671636]", "endpoint result": 17}
{"compound": "Cc1ccc(-c2nc(CN(Cc3ccccn3)C(C)C)cs2)o1 [MMV1088520]", "endpoint result": -15}
{"compound": "CC(=O)N(CCN(C(=O)c1ccc(F)cc1)c1ccccc1)c1ccccc1 [MMV676064]", "endpoint result": 3}
{"compound": "Nc1ncnc2n[nH]c(Cc3cccc4ccccc34)c12 [MMV688469]", "endpoint result": 4.5}
{"compound": "O=C(NCCc1ccccc1)c1cc(-c2cccnc2)cnc1NCC1CC1 [MMV026490]", "endpoint result": -5}
{"compound": "FC(F)(F)c1ccc(N(c2cccnc2)C2CCN(c3ccc(C(F)(F)F)cn3)CC2)cc1 [MMV689243]", "endpoint result": -3}
{"compound": "COc1cc(C(F)(F)F)nc2ccc(C)c(N)c12 [MMV047015]", "endpoint result": 5.5}
{"compound": "COc1cc(C2=NCCN2)ccc1-n1cc(-c2cccc(C3=NCCN3)c2)nn1 [MMV688474]", "endpoint result": 13}
{"compound": "CN(C)CCNC(=O)N1CCCN(c2ncnc3cc(-c4ccccc4)sc23)CC1 [MMV024195]", "endpoint result": 1.9}
